# experimental.details: basal MM1S mitochondrial membrane potential changes, profiling panel, cell-based, JC-1 fluorescence, 24 h, 100 nL compound (AID 1170); note: test concentration not given here
# reported.conditions: higher = more signal
The reader will find reported z-score values listed item by item below.

| compound | z-score |
| --- | --- |
| CCCCCN1CC=CC23O[C@@H]4C=CCOC(=O)[C@@H]4[C@H]2C(=O)N(CCO)[C@@H]3C1=O (stereo not given in full) | -0.15 |
| CCOC(=O)C[C@H]1[C@H](OC(=O)c2ccc(C(=O)c3ccccc3)cc2)[C@@H](NC(=O)CC(C)C)c2cc(OCCCO)ccc2N1C(=O)Cc1ccc(OC)cc1 | 0.288 |
| CCN(CC)c1ccc(N2CC=CC34O[C@@H]5/C=C\CCC(C)OC(=O)C5[C@H]3C(=O)N(C(C)CO)[C@@H]4C2=O)cc1 (stereo not given in full) | -0.585 |
| C=C[C@H](C)[C@H](OC(=O)Nc1ccc(OC)cc1)c1ccc(OCCO)cc1 | 0.873 |
| CC1CC/C=C\[C@H]2OC34C=CCN(C(C)(C)C)C(=O)[C@H]3N(C(CO)C(C)C)C(=O)[C@@H]4C2C(=O)O1 (stereo not given in full) | -0.516 |
| CC(C)N1CC=CC23O[C@@H]4/C=C\CCCOC(=O)C4[C@H]2C(=O)N(CCCCCCO)[C@@H]3C1=O (stereo not given in full) | 1.23 |
| [N-]=[N+]=NCc1ccccc1[C@@H]1OC(c2ccc(OCCCO)cc2)=N[C@]1(Cc1ccccc1N=[N+]=[N-])C(=O)NCCN1CCOCC1 | -0.212 |
| C[C@@H]1ON(c2ccc(I)cc2)[C@H](c2ccc(OC(=O)OC(C)(C)C)cc2)[C@H]1C(=O)N1C(=O)OC[C@H]1Cc1ccccc1 | -1.81 |
| O=C1C2C=CC(C(O)C=Cc3ccc([N+](=O)[O-])cc3)N(Nc3ccccc3)C2C(=O)N1c1ccccc1 (stereo not given) | -0.951 |
| CC(C)[C@H]1NC(=O)[C@@]23C(=O)N[C@@H](Cc4ccccc4)C2[C@H](C)[C@@]2(C)O[C@H]2C3/C=C/CCC/C=C/CNC(=O)[C@H](Cc2ccccc2)NC1=O (stereo not given in full) | 1.84 |
| CCCCCCCCCCC(O)C1C=CC2C(=O)N(c3ccccc3)C(=O)C2N1Nc1ccccc1F (stereo not given) | -0.193 |
| CC(C)CNC(=O)[C@@]1(C)c2ccccc2C(=O)N(Cc2cc(C(F)(F)F)cc(C(F)(F)F)c2)[C@H]1c1ccc(CO)cc1 | -0.939 |
| COc1cccc(/C=C(\C#N)C(=O)Nc2c(C)n(C)n(-c3ccccc3)c2=O)c1 | -0.535 |
| COC(=O)[C@@]1(Cc2ccc(F)cc2)[C@H]2c3cc(C(=O)N(C)C)n(Cc4ccc(O)c(OC)c4)c3C[C@H]2CN1C(=O)c1ccccc1 | -1.63 |
| CCCC=C(CCC)[C@@H](NC(=O)CCc1ccccc1)c1ccc(C(F)(F)F)cc1 | -0.774 |

====

# system.tested: Follistatin-related protein 3 (Homo sapiens)
# experimental.details: FSTL3 binders on small-molecule microarrays, primary screen, biochemical, small-molecule microarray, 635 nm fluorescence (AID 1105);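 note: score merges emission near 667 nm and signal to noise per printed spot across three slides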
# reported.conditions: FSTL3 binding, higher = more signal
Where composite z-score equals or exceeds 0.05, the correct label is criterion met; where it does not, the label is criterion not met.

| compound | class.label |
| --- | --- |
| C[C@]1(C(=O)NCCN2CCOCC2)c2ccccc2C(=O)N(Cc2cc(F)cc(C(F)(F)F)c2)[C@H]1c1ccc(CO)cc1 | criterion not met |
| COCC1=C2[C@@H](CCc3ccccc3)OB(O)C[C@@H]2[C@@H]2C(=O)N(C)C(=O)[C@@H]2C1 | criterion met |
| CC(C)C[C@@H]1NC(=O)[C@H]2C[C@@H](C(=O)NCCCCCN)[C@@H](c3cccc(OCCO)c3)N2C1=O | criterion not met |
| CN1C(=O)[C@@]2(Cc3ccccc3)N=C(c3ccc(OCCCO)cc3)O[C@H]2c2ccccc21 | criterion met |
| C=CCC(OC(C)=O)[C@@H]1[C@@H](N(Cc2ccc(-c3ccccc3)cc2)C(=O)c2ccc(C)cc2)c2cc(OCCCO)ccc2N1C(=O)Cc1ccc2ccccc2c1 (stereo partly drawn) | criterion not met |
| COCC(=C=CC[C@@H](O)c1ccc(OCCO)cc1)CCO | criterion met |
| CC(C)CNC(=O)[C@@]1(c2ccc([N+](=O)[O-])cc2)CC(=O)N(C2CCCCC2)[C@@H]1c1ccc(CO)cc1 | criterion not met |
| COC(=O)C1=CC(CCCO)=CC(C)N(Cc2cccc(OC(F)(F)F)c2)C=C1C(=O)OC (stereo not drawn) | criterion met |

====

The reader will find reported composite z-score values listed item by item below.
# system.tested: Epidermal growth factor receptor (Homo sapiens)
# experimental.details: EGFR binders on small-molecule microarrays, primary screen, biochemical, small-molecule microarray, 635 nm fluorescence (AID 1104);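 note: score merges 667 nm emission intensity with spot signal to noise over triplicate slides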
# reported.conditions: EGFR binding, higher = more signal

| compound | composite z-score |
| --- | --- |
| COCC1=C2[C@@H](CCc3ccccc3)OB(O)C[C@@H]2[C@@H]2C(=O)N(C)C(=O)[C@@H]2C1 | 0.3 |
| C=CCC(OC(C)=O)[C@@H]1[C@@H](N(Cc2ccc(-c3cccc(C(F)(F)F)c3)o2)C(=O)c2ccc(C)cc2)c2cc(OCCCO)ccc2N1C(=O)Cc1ccc(OC)cc1 (stereo not given in full) | -0.0424 |
| COc1cc(NN2C(C(O)C3CCCCC3)C=CC3C(=O)N(C)C(=O)C32)cc(OC)c1OC (stereo not given) | 0.203 |
| CC1CC/C=C\[C@H]2OC34C=CCN(C(C)(C)C)C(=O)[C@H]3N(C(CO)C(C)C)C(=O)[C@@H]4C2C(=O)O1 (stereo not given in full) | -0.33 |
| C=C/C=C/[C@@H]1C(=C)CN([C@@H](Cc2ccccc2)C(=O)OC)[C@H]1[C@@H](O)Cc1ccccc1 | -0.08 |
| C=C[C@@H](OC)[C@H](OC(=O)Nc1ccc(SC)cc1)c1ccc(OCCO)cc1 | 0.419 |
| CCOC(=O)C[C@H]1[C@H](OC(=O)c2ccccc2-c2ccccc2)[C@@H](NC(=O)c2ccc3ccccc3n2)c2cc(OCCCO)ccc2N1C(=O)c1ccccc1 | 0.575 |
| COCCOC(=O)N1C(=O)[C@@]2(c3cc(C#CCC(C(=O)OC)C(=O)OC)ccc31)[C@H](C(=O)NC[C@H](O)c1ccccc1)[C@H]1C(=O)O[C@H](c3ccccc3)[C@H](c3ccccc3)N1[C@@H]2c1ccc(OCCO)cc1 | 0.97 |
| CCOC(=O)C1=C[C@@H](c2ccccc2)N(S(=O)(=O)c2ccc(C)cc2)[C@H]1c1ccccc1 | 0.0794 |
| O=C1C[C@@](C(=O)NCc2ccccc2)(c2ccc([N+](=O)[O-])cc2)[C@@H](c2ccc(CO)cc2I)N1CC12CC3CC(CC(C3)C1)C2 | 0.547 |
| CCOC(=O)C1=C[C@@H](C(C)(C)C)N(S(=O)(=O)c2ccc(C)cc2)[C@H]1c1ccc(C)cc1 | 0.78 |
| COC(=O)[C@@]1(Cc2ccccc2CN=[N+]=[N-])N=C(c2ccc(OCCCO)cc2)O[C@H]1c1ccccc1 | -0.0819 |
| CCN(CC)c1ccc(N2CC=CC34O[C@@H]5C=CCCOC(=O)C5[C@H]3C(=O)N(CCO)[C@@H]4C2=O)cc1 (stereo not given in full) | -0.869 |
| C[C@]1(C(=O)NCC(F)(F)F)c2ccccc2C(=O)N(Cc2ccccc2)[C@H]1c1ccc(CO)cc1 | -1.3 |
| O=C1N(CCS(=O)(=O)c2ccccc2)Cc2ccccc2[C@@H]2OC(c3ccc(OCCCO)cc3)=N[C@]12CCS(=O)(=O)c1ccccc1 | 0.89 |

====

# experimental.details: small-molecule microarray binders of probe aEGFR, primary screen, biochemical, biotinylated probe, 635/667 nm fluorescence (AID 1097);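 note: probe is a biotinylated anti-EGFR antibody binding compounds printed on slides; score combines fluorescence near 667 nm and signal to noise of each spot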
# reported.conditions: higher = more signal
Where composite z-score equals or exceeds -0.1, the correct label is 1; where it does not, the label is 0.

| molecule | class.label |
| --- | --- |
| CC=CC(O)C1C=CC2C(=O)NC(=O)C2N1Nc1ccccn1 (configuration not stated) | 0 |
| CC(=O)NCCCC[C@@H]1NC(=O)[C@H]2C[C@@H](C(=O)NCCCCCNC(=O)CS)[C@@H](c3cccc(OCCO)c3)N2C1=O | 0 |
| COCCOC(=O)N1C(=O)[C@@]2(c3cc(C#CCC(C(=O)OC)C(=O)OC)ccc31)[C@H](c1ccc(O)cc1)N1[C@H](c3ccccc3)[C@H](c3ccccc3)OC(=O)[C@H]1[C@@H]2C(=O)NC[C@H](O)c1ccccc1 | 1 |
| COc1cc2c(cc1OC)CN(C(=O)[C@@H]1[C@H]3C(=O)O[C@H](c4ccccc4)[C@H](c4ccccc4)N3[C@H](c3ccc(O)cc3)[C@@]13C(=O)Nc1ccc(C#CCCO)cc13)CC2 | 1 |
| C=C(C(=O)CC[C@@H](OC(=O)c1ccccc1-c1ccccc1C(=O)O)c1ccccc1OCCO)C(C)C | 0 |
| COc1cc2c(cc1O)C(c1ccc(CN3CCCC3)cc1)N(C)CC2 (configuration not stated) | 0 |
| CCCNC(=O)[C@@]1(Sc2ccc(C)cc2)CC(=O)N(C(C)C)[C@@H]1c1ccc(CO)cc1I | 0 |

Values were extracted from PubChem BioAssay.
